# protocol_notes: Tryptophan fluorescent binding assay, 3POPC/1POPG vesicles
# conditions: 50 μM peptide, PBS pH 7.4
value_kind: Lipid Concentration-induced 50% Peptide Binding (L/P) 3POPC/1POPG Vesicle

> print(dat)
                seq.text  experimental.result
 1  GLLHLLELLLKAAG [HEK]                 0.46
 2  GLLKLLKLLLKAAG [KKK]                 1.70
 3  GLLKLLHLLLKAAG [KHK]                 0.38
 4  GLLDLLKLLLEAAG [DKE]                 0.46
 5  GLLELLHLLLHAAG [EHH]                 0.69
 6  GLLKLLKLLLEAAG [KKE]                 0.44
 7  GLLDLLHLLLEAAG [DHE]                 0.72
 8  GLLHLLKLLLKAAG [HKK]                 0.14
 9  GLLELLKLLLKAAG [EKK]                 0.63
10  GLLDLLELLLHAAG [DEH]                 1.50
11  GLLDLLKLLLKAAG [DKK]                 6.88
12  GLLDLLKLLLHAAG [DKH]                 0.46
13  GLLHLLELLLEAAG [HEE]                 0.50
14  GLLDLLHLLLHAAG [DHH]                 0.28
15  GLLHLLHLLLHAAG [HHH]                 0.82
16  GLLHLLHLLLKAAG [HHK]                 0.20
17  GLLKLLHLLLEAAG [KHE]                 0.71
18  GLLHLLKLLLHAAG [HKH]                 0.38
19  GLLKLLELLLKAAG [KEK]                 0.50
20  GLLELLHLLLKAAG [EHK]                 0.42
21  GLLDLLHLLLKAAG [DHK]                 0.38
22  GLLKLLELLLHAAG [KEH]                 0.50
23  GLLHLLELLLHAAG [HEH]                 3.50
24  GLLHLLHLLLEAAG [HHE]                 0.75
25  GLLHLLKLLLEAAG [HKE]                 0.25
26  GLLDLLELLLEAAG [DEE]                 0.38
27  GLLELLKLLLHAAG [EKH]                 0.19
28  GLLKLLHLLLHAAG [KHH]                 0.94
29  GLLELLKLLLEAAG [EKE]                 1.63
30  GLLKLLKLLLHAAG [KKH]                 0.48

* * *

# System: MCF-10A (human breast epithelial cell)
# protocol_notes: cells

mol	IC50
CC(C)C[C@H](NC(=O)CN)C(=O)N[C@@H](CC(C)C)C(=O)N[C@@H](CCC(=O)O)C(=O)N[C@@H](CC(C)C)C(=O)N[C@@H](CC(C)C)C(=O)N[C@@H](CCC(=O)O)C(=O)N[C@@H](CC(C)C)C(=O)N[C@@H](CC(C)C)C(=O)N[C@@H](CC(C)C)C(=O)N[C@@H](Cc1c[nH]cn1)C(=O)N[C@@H](C)C(=O)N[C@@H](C)C(=O)NCC(=O)N[C@@H](Cc1c[nH]c2ccccc12)C(N)=O	≥ 100 µM

* * *

# protocol_notes: ANTS/DPX liposome leakage assay, 3POPC/1POPG vesicles
# Format: biochemical
# conditions: 0.5 mM vesicles, pH 7.4
Response field class: enum, chosen by comparing Peptide Concentration-induced 50% ANTS/DPX leakage at pH 7.4 (L/P) 3POPC/1POPG Vesicle against group 1 (below 300 L/P), group 2 (300 L/P to below 400 L/P), group 3 (400 L/P or more)

> print(dat)
                seq.text  assigned.class
 1  GLLELLKLLLKAAG [EKK]         group 1
 2  GLLELLHLLLKAAG [EHK]         group 3
 3  GLLKLLKLLLKAAG [KKK]         group 1
 4  GLLKLLHLLLHAAG [KHH]         group 2
 5  GLLHLLHLLLHAAG [HHH]         group 3
 6  GLLHLLKLLLHAAG [HKH]         group 1
 7  GLLHLLKLLLEAAG [HKE]         group 2
 8  GLLHLLHLLLKAAG [HHK]         group 1
 9  GLLKLLELLLHAAG [KEH]         group 1
10  GLLKLLELLLKAAG [KEK]         group 3
11  GLLKLLKLLLEAAG [KKE]         group 2
12  GLLDLLHLLLKAAG [DHK]         group 3
13  GLLDLLHLLLEAAG [DHE]         group 3
14  GLLHLLKLLLKAAG [HKK]         group 1
15  GLLKLLHLLLEAAG [KHE]         group 1
16  GLLDLLELLLEAAG [DEE]         group 3
17  GLLELLKLLLHAAG [EKH]         group 2
18  GLLDLLELLLHAAG [DEH]         group 3
19  GLLKLLHLLLKAAG [KHK]         group 1
20  GLLHLLELLLEAAG [HEE]         group 3

* * *

# protocol_notes: Tryptophan fluorescent binding assay, POPC vesicles
# conditions: 50 μM peptide, PBS pH 7.4
value_kind: Lipid Concentration-induced 50% Peptide Binding (L/P) POPC Vesicle

mol	experimental_result
CC(C)C[C@H](NC(=O)CN)C(=O)N[C@@H](CC(C)C)C(=O)N[C@@H](CCC(=O)O)C(=O)N[C@@H](CC(C)C)C(=O)N[C@@H](CC(C)C)C(=O)N[C@@H](CCC(=O)O)C(=O)N[C@@H](CC(C)C)C(=O)N[C@@H](CC(C)C)C(=O)N[C@@H](CC(C)C)C(=O)N[C@@H](CCC(=O)O)C(=O)N[C@@H](C)C(=O)N[C@@H](C)C(=O)NCC(=O)N[C@@H](Cc1c[nH]c2ccccc12)C(N)=O	1.33 L/P
CC(C)C[C@H](NC(=O)CN)C(=O)N[C@@H](CC(C)C)C(=O)N[C@@H](CCC(=O)O)C(=O)N[C@@H](CC(C)C)C(=O)N[C@@H](CC(C)C)C(=O)N[C@@H](Cc1c[nH]cn1)C(=O)N[C@@H](CC(C)C)C(=O)N[C@@H](CC(C)C)C(=O)N[C@@H](CC(C)C)C(=O)N[C@@H](CCC(=O)O)C(=O)N[C@@H](C)C(=O)N[C@@H](C)C(=O)NCC(=O)N[C@@H](Cc1c[nH]c2ccccc12)C(N)=O	0.44 L/P
CC(C)C[C@H](NC(=O)CN)C(=O)N[C@@H](CC(C)C)C(=O)N[C@@H](CCCCN)C(=O)N[C@@H](CC(C)C)C(=O)N[C@@H](CC(C)C)C(=O)N[C@@H](CCC(=O)O)C(=O)N[C@@H](CC(C)C)C(=O)N[C@@H](CC(C)C)C(=O)N[C@@H](CC(C)C)C(=O)N[C@@H](CCC(=O)O)C(=O)N[C@@H](C)C(=O)N[C@@H](C)C(=O)NCC(=O)N[C@@H](Cc1c[nH]c2ccccc12)C(N)=O	0.20 L/P

* * *

Entries annotated with measured Lipid Concentration-induced 50% Peptide Binding (L/P) POPC Vesicle
# protocol_notes: Tryptophan fluorescent binding assay, POPC vesicles
# conditions: 50 μM peptide, PBS pH 7.4
value_kind: Lipid Concentration-induced 50% Peptide Binding (L/P) POPC Vesicle

> print(dat)
               seq.text  experimental.result
1  GLLHLLELLLKAAG [HEK]                 0.44
2  GLLDLLHLLLKAAG [DHK]                 0.20
3  GLLELLHLLLKAAG [EHK]                 0.56
4  GLLKLLKLLLHAAG [KKH]                 0.83
5  GLLKLLHLLLKAAG [KHK]                 0.17
6  GLLDLLELLLEAAG [DEE]                 0.63
7  GLLHLLHLLLHAAG [HHH]                 0.46
8  GLLKLLHLLLHAAG [KHH]                 3.50
